Tested on: CAKI-1 renal
Protocol Notes: NCI tumour cell line growth inhibition, 48 h; in the data active = GI50 below about 0.43 µM; inactive = the rest
Possible outcomes: 1 (active), 0 (inactive)

| Molecule | Class Name |
| --- | --- |
| [Cl-].[Gd+3].[O-]/N=C(\c1ccccc1)c1ccccn1.[O-]/N=C(\c1ccccc1)c1ccccn1.[O-]/N=C(\c1ccccc1)c1ccccn1 | 0 |
| O=c1nc2[nH]c3c(-c4n[nH]c(=O)[nH]c4=O)cccc3c2n[nH]1 | 0 |
| CC1OC(OC2C(O[C@H]3CC[C@@]4(C)C(=CC[C@H]5[C@@H]6C[C@@H]7O[C@]8(CC[C@@H](C)CO8)[C@@H](C)[C@@H]7[C@@]6(C)CC[C@@H]54)C3)OC(CO)C(OC3OC(CO)C(O)C3O)C2O)C(O)C(O)C1O (some centres undefined) | 0 |
| CC1=C(CNO)C2=C(C)C3(CC3)[C@@](C)(O)C(=O)C2=C1 | 0 |
| CCCCC[C@@H](C/C=C/CCC(=O)NC/C(=C/Cl)[C@H]1C(=O)C(C)(C)C(=O)[C@@H](C)[C@@]1(C)O)OC | 0 |
| C#Cc1cccc(NC(=O)C2CCCN(C(=O)CCl)C2)c1 (centres undefined) | 0 |
| c1cncc([O][Ge]([O]c2cccnc2)([O]c2cccnc2)[O]c2cccnc2)c1 | 0 |
| CCN1CCN(c2nc(NNC(=O)c3ccccc3)nc(N3CCN(C(c4ccccc4)c4ccccc4)CC3)n2)CC1 | 0 |
| NC(N)=N/N=C(/c1ccccc1)c1ccccc1F | 0 |
| C=C(Cl)[C@@](Cl)(CBr)CC[C@@H](Br)C(C)(C)Cl | 0 |
| N/C(=N\C(N)=N\c1nc2ccccc2s1)c1cnccn1 | 0 |
| OCC#Cc1ccccc1C#Cc1ccc(C#Cc2ccccc2)cc1 | 0 |
| Cc1ccnc(Nc2ccc([N+](=O)[O-])c(NCCN3CCOCC3)n2)c1 | 1 |
| Cc1cc(Nc2ccc(Cl)cc2)nc(NCCCNc2ccnc3cc(Cl)ccc23)n1 | 0 |
| O=C(OC[C@@H]1CO1)c1cccc2c(=O)c3ccccc3[nH]c12 | 1 |
| COc1ccc(OCC(O)CN2CCN(c3ccc(Cl)cc3)CC2)cc1 (centres undefined) | 0 |
| Cn1ccnc1C(=O)/C=C/c1ccc(C(=O)Nc2c(F)c(F)c(F)c(F)c2F)cc1 | 0 |
| COc1ccc(/C=C/C(C)=N/OCC(=O)Nc2ccc(Cl)cc2)cc1 | 0 |
| COc1cccc(C2C(C#N)=C(N)Oc3cc4c(cc32)OCO4)c1 (centres undefined) | 1 |

* * *

Measured GI50 accompanies every entry in the list below.
Tested on: MDA-MB-435

| Compound | GI50 |
| --- | --- |
| COc1c(O)c2c3c(c1OC)-c1ccccc1CC3N(S(=O)(=O)c1ccc(C)cc1)CC2 (stereo not given) | 1070 nM |
| COc1cc2c(cc1OCCCOc1ccc(-c3cc4ccccc4c4ccccc34)cc1)N=C[C@@H]1CCCN1C2=O | 343 nM |
| COc1cc(/C=C2\C(=O)N(C)c3ccccc32)cc(OC)c1OC | 5020 nM |
| N#CCC1(n2cc(-c3ncnc4[nH]ccc34)cn2)CN(C2CCN(C(=O)c3ccnc(C(F)(F)F)c3F)CC2)C1 | 92100 nM |
| Oc1ccccc1C=Nc1nc(OCc2ccccc2)nc2[nH]ncc12 | 20700 nM |
| Clc1ccc2c(NCCCN3CCN(c4nc(N5CCOCC5)nc5ccccc45)CC3)ccnc2c1 | 1810 nM |
| Cc1ccnc(Nc2ccc([N+](=O)[O-])c(NCCN3CCOCC3)n2)c1 | 2.33 nM |
| O=C(N/N=C/c1ccc(F)cc1)c1ccc(C(F)(F)F)nc1Nc1cccc(C(F)(F)F)c1 | 2660 nM |
| NC(N)=N/N=C(/c1ccccc1)c1ccccc1F | 347 nM |
| CCSc1ncc(Br)c(Sc2nc(N)nc3nc[nH]c23)n1 | 3720 nM |
| COc1cc(N(CCC#N)CCC#N)ccc1/C(N=Nc1ccc(C(=O)O)cc1)=N/NC(=O)c1cc(Br)ccc1O | > 150 µg/mL |
| CCN(CC)CCNc1ccc([N+](=O)[O-])c2sc3cc(Cl)ccc3c(=O)c12 | 2830 nM |
| CCN1CCN(c2nc(NNC(=O)c3ccccc3)nc(N3CCN(C(c4ccccc4)c4ccccc4)CC3)n2)CC1 | 1940 nM |
| NC(=O)c1ncn(C2OC(CO)C(O)C2O)c1N (stereo not given) | > 100000 nM |
| COc1ccc(/C=C\c2cc(OC)c(OC)c(OC)c2)c(NS(=O)(=O)c2ccc(C(C)(C)C)cc2)c1O | 42.7 nM |
| C#CC#CC#CC#CC#CC#CC#CC#CC[C@@H]1OC[C@@H](COC(=O)O[C@@H](C(=O)O[C@H]2C[C@@]3(O)[C@@H](OC(=O)c4ccccc4)[C@@H]4[C@]5(OC(C)=O)CO[C@@H]5C[C@H](O)[C@@]4(C)C(=O)[C@H](OC(C)=O)C(=C2C)C3(C)C)[C@@H](NC(=O)c2ccccc2)c2ccccc2)O1 | 39.4 nM |
| CCN(CC)CCOc1ccc2c(C)c(C(=O)OC)oc2c1C(=O)/C=C/c1ccc(OC)cc1 | 5540 nM |
| COc1ccc(/C=C/C(C)=N/OCC(=O)Nc2ccc(Cl)cc2)cc1 | 2440 nM |
| CC1=C(CNO)C2=C(C)C3(CC3)[C@@](C)(O)C(=O)C2=C1 | 11400 nM |
| C=C1CC/C=C(\C)CC[C@H](C(=C)C)[C@@H](O)/C=C(/CO)CCC1O (stereo not given in full) | 40500 nM |
| COc1cc2cc3c(c(O)c2c(O)c1-c1c(OC)cc2cc4c(c(O)c2c1O)C(=O)O[C@H](C)C4)C(=O)O[C@H](C)C3 | 17800 nM |
| CC1(C)CC[C@]2(C(=O)O)CC[C@]3(C)C(=CC[C@@H]4[C@@]5(C)C/C(=C/c6ccco6)C(=O)C(C)(C)[C@@H]5CC[C@]43C)[C@@H]2C1 | 3630 nM |
| CNCc1ccc(-c2[nH]c3cc(F)cc4c3c2CCNC4=O)cc1 | 16500 nM |
| O=C(c1ccccc1)C(Br)C(Br)c1ccccc1 (stereo not given) | 2910 nM |
| C=C(Cl)[C@@](Cl)(CBr)CC[C@@H](Br)C(C)(C)Cl | 2500 nM |

* * *

Measured TGI accompanies every entry in the list below.
Tested on: MALME-3M melanoma
Protocol Notes: NCI tumour cell line growth inhibition, 48 h
Measured Property: TGI

| Molecule | Assay Value |
| --- | --- |
| CC[C@@]12CCC(=S)N(CCSc3ccccc3)[C@@H]1c1c(n(S(=O)(=O)c3ccc(OC)cc3)c3ccccc13)CC2 | > 100 µM |
| Cc1ncc(CSC(=N)N)n1Cc1ccccc1 | > 100 µM |
| Clc1cc2ncn(C3CCCCO3)c2cc1Cl (stereo unspecified) | > 100 µM |
| O=C1c2ccccc2C(=O)c2sc(Nc3cc(Cl)ccc3Cl)nc21 | 3.33 µM |
| c1ccc2c3c([nH]c2c1)C1C2CCCCN2C(c2ccncc2)N1CC3 (stereo unspecified) | > 100 µM |
| COc1ccc(C(=O)O/N=C2/CCCCC2CN(C)C)cc1 (stereo unspecified) | > 100 µM |

* * *

Measured TGI accompanies every entry in the list below.
Test system: LXFL 529 NSCLC
Protocol Notes: NCI tumour cell line growth inhibition, 48 h

| Molecule | Measured On | TGI |
| --- | --- | --- |
| COCC1N=C(c2cc(OC)c(OC)c(OC)c2-c2cc3c(cc2[C@H](C)O)OCO3)O[C@H]1c1ccccc1 (stereo not given in full) | LXFL 529 NSCLC | > 100 µM |
| CC1=CCN(c2ccccn2)OC1c1ccccc1 (stereo not given) | LXFL 529 NSCLC | > 100 µM |
| Cc1ccc(NCCN(C)C)c2c(=O)c3cc(O)ccc3sc12 | LXFL 529 NSCLC | 21.7 µM |
| O=C(/C(=C/c1ccc(O)cc1)c1ccccc1)c1ccccc1 | LXFL 529 NSCLC | 35.7 µM |
| Nc1nc(=S)[nH]c(C(=O)Nc2nccs2)c1-c1ccccc1 | LXFL 529 NSCLC | > 100 µM |
| CC(=O)[C@]1(O)Cc2c(O)c3c(c(O)c2[C@@H](OC2CC(N)C(O)C(C)O2)C1)C(=O)c1c(OCc2ccccc2)cccc1C3=O (stereo not given in full) | LXFL 529 NSCLC | 2.38 µM |
| COc1ccc(C(=O)O/N=C2/CCCCC2CN(C)C)cc1 (stereo not given) | LXFL 529 NSCLC | > 100 µM |
| C(=C\c1c2oc(-c3ccccc3)cc(-c3ccccc3)c-2c2ccccc12)/C=C1\c2ccccc2-c2c(-c3ccccc3)cc(-c3ccccc3)[o+]c21 | LXFL 529 NSCLC | > 100 µM |
| CC(=O)[O-].[Mn+3].[O-]c1ccc(Cl)cc1C=NCCN=Cc1cc(Cl)ccc1[O-] | LXFL 529 NSCLC | > 100 µM |
| COc1ccc2c(c1)[n+](=O)c(C(C)=O)c(C)n2[O-] | LXFL 529 NSCLC | > 100 µM |
